# procedure_text: soluble fraction after stress (log2 fold change); higher = more stays soluble; pooled small domains, quantitative proteomics
# applied_conditions: stress: 50 degC
Quick rule for you: soluble fraction (log2) at -0.4 or higher means YES, lower means NO.

Some solved cases for reference:
biopolymer_sequence=HMDALPLIQLEKEIKDFISQGQKINAIKHYRNVMDRDFGTTISLKLAKYTVDALAQNIKVDLTKGYDQ classification=NO
biopolymer_sequence=HMDMSVDQFNQGIRGSELYQQFIHGRGLQQPDGKTREWTDADRNAWRRTLEASGVRIPDGMKIDNAGNLNE classification=YES
biopolymer_sequence=HMDIPGITAVKPQAAFYMFPKIDVKKFNIVNDEKFALDLLQDKKILIVQGSGFNWKQPDHFRVV classification=YES

Given HMSSGSLLTEREIEILAEMAKGLTNKAIGEKLFISVATVKTHILNIYRKLEVSSRVTAVNKAKQMRL , state whether its soluble fraction (log2) is at least -0.4.
NO

Given HMPPENVSVRREQIAEDKKTVYNVWVTKGNKTVLYSKVVYAWGGVYFFRDLNTSISENMYKQADAGLVN , state whether its soluble fraction (log2) is at least -0.4.
YES

Given HMSEQIALQFAKAKQHHTGIALKGIEALELRYKGYTGKEIAALYHTSPKSVFSWISRAKQKLRQN , state whether its soluble fraction (log2) is at least -0.4.
YES

* * *

Consider the following sequences; for each one, report its soluble fraction (log2).
# procedure_text: soluble fraction after stress (log2 fold change); higher = more stays soluble; pooled small domains, quantitative proteomics
# applied_conditions: stress: 50 degC
One number for each entry.

biopolymer_sequence=HMVPQEVLPITLIIDGKLIEENLLYAKMTEQVLIQQLDINNIKSIKQILFAGLDSFGNFFYQEKQN measured_endpoint="soluble fraction (log2)" measured_value=-1.8

Items follow; give soluble fraction (log2) for each.
1. HMNVAELIEGHEAEIAEVLKEFSLLYLMRLADELGEMTKSSSGNGPFQVLKGLVYEEIARRG
2. HMKRRSLQVGDIVQVRSLNVKGEVVSIGKNEVVVAVGRLQMRAGFDDLDFKERPKEEREVESV

1: -1.09; 2: -0.143

* * *

Consider the following sequences; for each one, report its soluble fraction (log2).
# procedure_text: soluble fraction after stress (log2 fold change); higher = more stays soluble; pooled small domains, quantitative proteomics
# applied_conditions: stress: 50 degC
Answers are plain numbers.

// known answers, use as guide
biopolymer_sequence=HMDLPREKRIEIGLTYIYGIGLKTSQKILAATGIDPNTRVKDLDETTVSKLREYIDHNYRVEGELRS measured_value=-0.504
biopolymer_sequence=HMRDANYFINPIHEWQKRYEALRASFVDRLPAQAVAQRFGYTITYIHLLRHQFKSGKIDFSEPVPEG measured_value=-4.61
biopolymer_sequence=HMDGEINPYTGREYVTNSVRMHPRRIGYVQVYSRKDHKWTDMTEWAFLGEQERKKVLLGKAYEPPVYL measured_value=-1.55
biopolymer_sequence=HMLPYGDRRRHTDNTISRIRELAAALDDSGIADRLNQDGYVTPEGKPFTYAGVRWIRYKYDISGPYERN measured_value=-1.5
biopolymer_sequence=HMITKEDVANKKVNLLFFGNFHKMKLPDFEWGITEMMQDRDYLYGSLTKDLYFLGLVLDRKYKI measured_value=0.0334

Please find the next sequence below.
What soluble fraction (log2) value was documented for this sequence, HMGISQAQAMQALRKLIEEEDKHTPLSDQTLMERLKAAGIPLARRTIAKYRESLGIPSAAQRK ?
-0.109
